Property: inhibition; scope: individual compounds
Biological target: ATP-binding cassette sub-family B member 6 (Homo sapiens) (UniProt Q9NP58)
Sequence (Q9NP58 whole entry, looked up): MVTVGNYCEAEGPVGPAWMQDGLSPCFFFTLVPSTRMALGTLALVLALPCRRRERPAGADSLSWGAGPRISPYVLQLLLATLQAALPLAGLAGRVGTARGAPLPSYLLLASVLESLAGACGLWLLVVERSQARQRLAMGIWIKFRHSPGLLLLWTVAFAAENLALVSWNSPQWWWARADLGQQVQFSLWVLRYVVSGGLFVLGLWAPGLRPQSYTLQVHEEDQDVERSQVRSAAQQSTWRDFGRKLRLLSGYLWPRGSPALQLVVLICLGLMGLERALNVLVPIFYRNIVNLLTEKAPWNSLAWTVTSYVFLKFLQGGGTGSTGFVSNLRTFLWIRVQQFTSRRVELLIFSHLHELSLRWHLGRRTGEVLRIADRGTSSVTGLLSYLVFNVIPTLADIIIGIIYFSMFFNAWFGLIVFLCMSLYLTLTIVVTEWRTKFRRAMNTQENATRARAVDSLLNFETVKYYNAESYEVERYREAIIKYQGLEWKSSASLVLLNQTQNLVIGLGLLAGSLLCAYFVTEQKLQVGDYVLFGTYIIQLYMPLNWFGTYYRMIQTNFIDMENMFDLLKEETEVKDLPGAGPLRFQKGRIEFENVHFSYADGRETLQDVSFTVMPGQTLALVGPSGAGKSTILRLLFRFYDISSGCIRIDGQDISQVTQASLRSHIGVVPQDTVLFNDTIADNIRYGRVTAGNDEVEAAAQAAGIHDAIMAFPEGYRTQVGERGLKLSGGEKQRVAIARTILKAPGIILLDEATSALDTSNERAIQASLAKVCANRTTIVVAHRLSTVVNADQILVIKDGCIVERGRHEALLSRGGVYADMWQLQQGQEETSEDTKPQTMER
Test: ABCB6 transporter inhibitors, pilot screen, K562-ABCB6 cells, flow cytometry, validation set (AID 588550);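 further: 0% = DMSO wells and 100% = benzethonium chloride 70 µM positive control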
Settings: K562-ABCB6 porphyrin accumulation, 1 h, at 10 µM, stronger effect = higher value
The source made the active and inactive calls.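 How the source made its calls: active means inhibition above the screen-wide mean plus 3 SD, about 51%; inactive means the rest.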

Some solved entries appear below for comparison.
Problem: # inhibition lookup, item COc1ccc(CNC(=O)c2cc3c(=O)n4ccccc4nc3n(Cc3cccnc3)c2=N)cc1
Result: 4% (inactive)

Problem: What do we get for CC1/C(=C\c2ccc(Cl)cc2)C(=O)C2CC1C2(C)C (stereo unspecified) ?
Result: 9% (inactive)

Problem: What do we get for COC(=O)c1cc(OC)c(OC)cc1NC(=O)Nc1ccc(OC)cc1OC ?
Result: 7% (inactive)

Problem: What do we get for COc1ccc(C(=O)/C=C/c2cc(C(=O)O)cc3c2OCOC3)c(O)c1 ?
Result: 0% (inactive)

Problem: What do we get for COc1ccc(CCNC(=O)c2c(O)c3c([nH]c2=O)CCCC3)cc1 ?
Result: 1% (inactive)

Please find the next compound below.
Problem: # inhibition lookup, item Fc1cccc(Cc2noc(CN3CCN(c4cnccn4)CC3)n2)c1
Result: 0% (inactive)
